SYSTEM_NAME: human renalase (human, UniProt Q5VYX0 18-342, limits assumed)
Sequence (Q5VYX0 18-342 limits assumed): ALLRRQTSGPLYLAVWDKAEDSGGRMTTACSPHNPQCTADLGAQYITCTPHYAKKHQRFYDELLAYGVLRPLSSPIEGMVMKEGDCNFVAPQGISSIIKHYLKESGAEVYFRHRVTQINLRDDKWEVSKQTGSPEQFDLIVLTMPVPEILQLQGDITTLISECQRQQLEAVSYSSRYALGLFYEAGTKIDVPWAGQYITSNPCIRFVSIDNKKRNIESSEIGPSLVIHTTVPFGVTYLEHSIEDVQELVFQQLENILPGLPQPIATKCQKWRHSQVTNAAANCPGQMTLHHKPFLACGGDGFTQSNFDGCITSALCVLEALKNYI
MEASUREMENT_DESCRIPTION: cell-based or functional assay
ASSAY_ENDPOINT: IC50 of % cell survival, BxPC3 (human pancreatic adenocarcinoma) cells (nM)
Express the result in nM but write the number alone.

// solved cases for IC50 of % cell survival, BxPC3 (human pancreatic adenocarcinoma) cells follow
BINDER | UNIT_TEXT | RECORDED_NUMBER
M28-K5 (humanized, affinity-matured variant of M28) (antibody, V domains shown) VH: EVQLVESGGGLVQPGGSLRLSCAASGFNLSSFAVHWVRQAPGKGLEWVALISGRGTRFYADSVKGRFTISKDTSKNTAYLQMNSLRAEDTAVYYCARHWYSGGVVRLDAWGQGTLVTVSS VL: DIQMTQSPSSLSASVGDRVTITCRASQSVYDNNNVAWYQQKPGKAPKLLIYGASTLYSGVPSRFSGSRSGTDFTLTISSLQPEDFATYYCLGEGPCSVTDCLIFGQGTKVEIKR | nM | 24.5
monoclonal antibody 1D-28-4 (antibody, V domains shown, also called m28-RNLS; Ren1D 28-4) VH: QSVEESGGRLVTPGTPLTLTCTVSGFSLSSFAVGWVRQAPGKGLEYIGIISSVGITRYASWAAGRFTISKTSTTVDLKITSPTTEDTATYFCARYGYSGDVNRLDLWGQGTLVTVSS VL: AQVLTQTASPVSAAVGGTVTINCQASQSVYDNNNLAWYQQKPGQPPKQLIYGASTLASGVSSRFKGSGSGTQFTLTISGVQCDDAATYYCLGEFSCSSADCFAFGGGTEVVVKG | nM | 1.5
M28-K2 (humanized, affinity-matured variant of M28) (antibody, V domains shown) VH: EVQLVESGGGLVQPGGSLRLSCAASGFNLSSFAVHWVRQAPGKGLEWVALIGVRGSLYYADSVKGRFTISKDTSKNTAYLQMNSLRAEDTAVYYCARHWYSGGVVRLDAWGQGTLVTVSS VL: DIQMTQSPSSLSASVGDRVTITCRASQSVYDNNNVAWYQQKPGKAPKLLIYGASTLYSGVPSRFSGSRSGTDFTLTISSLQPEDFATYYCLGEGPCSVTDCLIFGQGTKVEIKR | nM | 31.7
M28-K13 (humanized, affinity-matured variant of M28) (antibody, V domains shown) VH: EVQLVESGGGLVQPGGSLRLSCAASGFNLSSFAVHWVRQAPGKGLEWVALIGVRGSLYYADSVKGRFTISKDTSKNTAYLQMNSLRAEDTAVYYCARHWYSGGVVRLDAWGQGTLVTVSS VL: DIQMTQSPSSLSASVGDRVTITCRASQSVYDNNNVAWYQQKPGKAPKLLIYGASTLYSGVPSRFSGSRSGTDFTLTISSLQPEDFATYYCLGEFSCSSADCFAFGQGTKVEIKR | nM | 25.5

Let us examine a further case.
[in] Report IC50 of % cell survival, BxPC3 (human pancreatic adenocarcinoma) cells for M28-K16 (humanized, affinity-matured variant of M28) (antibody, V domains shown, the residue limits are my own count) VH: EVQLVESGGGLVQPGGSLRLSCAASGFNLSSFAVHWVRQAPGKGLEWVALISGRGTRFYADSVKGRFTISKDTSKNTAYLQMNSLRAEDTAVYYCARHWYSGGVVRLDAWGQGTLVTVSS VL: DIQMTQSPSSLSASVGDRVTITCRASQSVYDNNNVAWYQQKPGKAPKLLIYGASTLYSGVPSRFSGSRSGTDFTLTISSLQPEDFATYYCLGEFSCSSADCFAFGQGTKVEIKR
[out] 1700
